Where do the numbers come from? From ChEMBL document CHEMBL1126550.

# targetOrSystem: Vasopressin V1 receptor (Rattus norvegicus, UniProt P48974+P30560)
# methodDescription: Inhibition of radioligand [3H]AVP binding to the vasopressin V1 receptor in rat liver tissue
Criterion: IC50 strictly less than 1000 nM. Met: 1 (yes). Not met: 0 (no).

Some solved cases for reference:
[
  {
    "molecule": "CC1(C)[C@@H]2CC[C@@]1(CS(=O)(=O)N1CCC3(CCc4ccccc43)CC1)[C@@H](NC(=O)[C@H](N)Cc1c[nH]cn1)C2",
    "targetOrSystem": "Vasopressin V1 receptor (Rattus norvegicus, UniProt P48974+P30560)",
    "categoryLabel": "0 (no)"
  },
  {
    "molecule": "CC1(C)[C@@H]2CC[C@@]1(CS(=O)(=O)N1CCC3(CCc4ccccc43)CC1)[C@@H](N1C(=O)NC(Cc3c[nH]cn3)C1=O)C2 (stereo in doubt)",
    "targetOrSystem": "Vasopressin V1 receptor (Rattus norvegicus, UniProt P48974+P30560)",
    "categoryLabel": "1 (yes)"
  },
  {
    "molecule": "CC1(C)[C@@H]2CC[C@@]1(CS(=O)(=O)N1CCC3(CCc4ccccc43)CC1)[C@@H](N1C(=O)CCC1C(=O)O)C2 (some centres not stated)",
    "targetOrSystem": "Vasopressin V1 receptor (Rattus norvegicus, UniProt P48974+P30560)",
    "categoryLabel": "0 (no)"
  },
  {
    "molecule": "CC(=O)N[C@@H]1C[C@H]2CC[C@]1(CS(=O)(=O)N1CCC3(CCc4ccccc43)CC1)C2(C)C",
    "targetOrSystem": "Vasopressin V1 receptor (Rattus norvegicus, UniProt P48974+P30560)",
    "categoryLabel": "0 (no)"
  }
]

Attention now turns to another entry.
*Q* Please determine if CC1(C)[C@@H]2CC[C@@]1(CS(=O)(=O)N1CCC3(C=Cc4ccccc43)CC1)[C@@](O)(CCNC(=O)CC1CN3CCC1CC3)C2 (some centres not stated) is below 1000 nM in terms of IC50.
*A* 1 (yes)
